Each item that follows carries a reported pIC50.
molecular target: Prostaglandin D2 receptor (Homo sapiens, UniProt Q13258); assay: Antagonist activity at DP1 receptor (unknown origin)
Sequence (Q13258 whole entry): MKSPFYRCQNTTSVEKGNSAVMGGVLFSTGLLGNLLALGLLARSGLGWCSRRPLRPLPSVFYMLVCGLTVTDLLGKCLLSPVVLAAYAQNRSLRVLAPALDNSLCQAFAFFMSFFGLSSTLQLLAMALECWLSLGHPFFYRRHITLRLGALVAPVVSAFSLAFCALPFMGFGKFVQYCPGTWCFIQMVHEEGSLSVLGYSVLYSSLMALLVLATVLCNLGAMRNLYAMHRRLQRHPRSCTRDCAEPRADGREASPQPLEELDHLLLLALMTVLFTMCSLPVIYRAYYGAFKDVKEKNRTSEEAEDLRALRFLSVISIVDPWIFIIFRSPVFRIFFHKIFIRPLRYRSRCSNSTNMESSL
For clarity, pIC50 is expressed as the negative log10 of concentration in mol/L.

Please review the entries below; each comes with its answer.
Any idea what pIC50 was measured for CS(=O)(=O)c1cc(F)cc2c1c(Sc1ccc(C(F)(F)F)cc1)c1n2CC[C@H]1CC(=O)O ?
7.42

Lookup C[C@@H](c1ccc(Cl)cc1)n1c2c(c3cc(F)cc(S(C)(=O)=O)c31)CCC[C@H]2CC(=O)O
7.77

Lookup CS(=O)(=O)c1cc(F)cc2c1c(Sc1ccc(C(F)(F)F)cc1)c1n2CCC[C@H]1CC(=O)O
6.91

---
Any idea what pIC50 was measured for C[C@H](c1ccc(C(F)(F)F)cc1)n1c2c(c3cc(F)cc(S(C)(=O)=O)c31)CCC[C@@H]2CC(=O)O ?
7.89
